Please go through the items and note down their Ki.
- target: Genome polyprotein (Hepatitis C virus genotype 1a (isolate H77), UniProt P27958)
- Sequence (P27958 1027-1657 limits assumed): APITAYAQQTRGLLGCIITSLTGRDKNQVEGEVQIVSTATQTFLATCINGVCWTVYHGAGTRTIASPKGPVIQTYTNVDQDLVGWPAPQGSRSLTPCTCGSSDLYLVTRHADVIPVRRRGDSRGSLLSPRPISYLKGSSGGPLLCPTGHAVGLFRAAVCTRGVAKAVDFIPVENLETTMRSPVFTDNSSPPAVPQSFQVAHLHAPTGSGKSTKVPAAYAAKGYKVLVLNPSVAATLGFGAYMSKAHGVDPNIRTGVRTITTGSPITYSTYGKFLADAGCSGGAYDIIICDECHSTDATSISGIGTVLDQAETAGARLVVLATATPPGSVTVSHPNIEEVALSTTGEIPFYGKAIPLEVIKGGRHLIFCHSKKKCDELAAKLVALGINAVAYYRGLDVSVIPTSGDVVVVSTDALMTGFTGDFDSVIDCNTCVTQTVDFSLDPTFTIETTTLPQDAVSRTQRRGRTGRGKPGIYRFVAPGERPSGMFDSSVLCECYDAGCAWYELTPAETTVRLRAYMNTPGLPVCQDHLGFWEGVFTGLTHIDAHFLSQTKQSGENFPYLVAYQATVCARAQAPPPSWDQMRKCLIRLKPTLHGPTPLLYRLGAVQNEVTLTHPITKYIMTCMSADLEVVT
- protocol-text: Continuous Spectrophotometric Assay
- experimental-context: pH 6.5; 30 °C
Answers are plain numbers, in nM.

Ask: Report Ki on Genome polyprotein (Hepatitis C virus genotype 1a (isolate H77), UniProt P27958) for this entry: CN(C)C(=O)[C@@H](NC(=O)CNC(=O)C(=O)[C@@H]1CCCCCCCCCC[C@H](NC(=O)OC(C)(C)C)C(=O)N2C[C@H]3[C@@H]([C@H]2C(=O)N1)C3(C)C)c1ccccc1
Result: 6

Ask: Tell me Ki of CC(C)[C@H](NC(=O)N[C@H]1CCCCCCCCC[C@@H](C(=O)C(N)=O)NC(=O)[C@@H]2[C@@H]3[C@H](CN2C1=O)C3(C)C)C(=O)C1CC1 when tested on Genome polyprotein (Hepatitis C virus genotype 1a (isolate H77), UniProt P27958).
Result: 11

Ask: Output reported Ki of the compound C=CCNC(=O)C(=O)[C@@H]1CCCCCCCCC[C@H](NC(=O)N[C@H](CN(C)S(=O)(=O)c2cccs2)C(C)(C)C)C(=O)N2C[C@H]3[C@@H]([C@H]2C(=O)N1)C3(C)C on Genome polyprotein (Hepatitis C virus genotype 1a (isolate H77), UniProt P27958).
Result: 5

Ask: Report its Ki with Genome polyprotein (Hepatitis C virus genotype 1a (isolate H77), UniProt P27958) as the test system: CN(C[C@@H](NC(=O)N[C@H]1CCCCCCCCC[C@@H](C(=O)C(N)=O)NC(=O)[C@@H]2[C@@H]3[C@H](CN2C1=O)C3(C)C)C(C)(C)C)S(=O)(=O)c1cccs1
Result: 2

Ask: Give Ki for this entry on Genome polyprotein (Hepatitis C virus genotype 1a (isolate H77), UniProt P27958): CN(C[C@@H](NC(=O)N[C@H]1CCCCCCCCC[C@@H](C(=O)C(N)=O)NC(=O)[C@@H]2[C@@H]3[C@H](CN2C1=O)C3(C)C)C(C)(C)C)S(C)(=O)=O
Result: 3

# batch: return Ki for each of the 3 compounds below
1. CC(C)(C)OC(=O)N[C@H]1CCCCCCC[C@@H](C(=O)C(N)=O)NC(=O)[C@@H]2[C@@H]3[C@H](CN2C1=O)C3(C)C
2. CN(C[C@@H](NC(=O)N[C@H]1CCCCCCCCC[C@@H](C(=O)C(=O)NCC2CC2)NC(=O)[C@@H]2[C@@H]3[C@H](CN2C1=O)C3(C)C)C(C)(C)C)S(=O)(=O)c1cccs1
3. CC(C)(C)NC(=O)C(=O)[C@@H]1CCCCCCCCCC[C@H](NC(=O)OC(C)(C)C)C(=O)N2C[C@H]3[C@@H]([C@H]2C(=O)N1)C3(C)C

Result:
[210, 21, 6000]
